Tested on: BT-549 breast
Assay: NCI tumour cell line growth inhibition, 48 h
READOUT TYPE: TGI

Known results for molecules:
COc1ccc2c(c1)CN([C@@H](C)[C@H]1CC[C@H]3[C@@H]4CC[C@H]5C[C@@H](O)CC[C@]5(C)[C@H]4CC[C@]13C)CO2 | 14.4 µM
CCOC(=O)c1ccc(NC(=O)NC2=NCCS2)cc1 | > 40.1 µM
N#Cc1c(Cl)c2cccnc2n2c1nc1ccccc12 | 9.28 µM
Cc1cccc2[nH]c3c(c(O)cc4[nH]c5cccc(C)c5c(=O)c43)c(=O)c12 | > 10 µM
Nc1nc(N)c2cc(Sc3ccc4ccccc4c3)ccc2n1 | 9 µM

Report TGI for every entry below.
1. CC(=O)NC1(NC(C)=O)C2CC(C1Cc1ccccc1)C(C)(C)C2C (stereo not given)
2. COc1ccc2c(O)c(S(=O)(=O)c3ccc(C)cc3)c(=O)oc2c1OC
3. O=[N+]([O-])C(/C(Cl)=C(\Cl)Br)=C(/Cl)SCc1ccccc1
4. c1ccc2c(c1)c1ccccc1n2Cn1c2ccccc2c2ccccc21

Result string:
> 100 µM
> 100 µM
7.38 µM
> 100 µM

Query string: Quick check: TGI of COc1cc([C@@H]2c3cc4c(cc3[C@H](OC(C)=O)[C@H]3COC(=O)[C@@H]23)OCO4)cc(OC)c1OC ?
Result string: > 68.5 µM

---

System: SNB-78 CNS
Experiment: NCI tumour cell line growth inhibition, 48 h
READOUT TYPE: TGI (µM)
Give bare numbers, in µM.

c1cc2c3c(c1)c1cc4c(cc1c[n+]3CC2)OCO4 | 47.1
C/C(=N\NC(=S)N1CCC(N2CCCCC2)CC1)c1ccccn1 | 27.5

Please turn your attention to the following entry.
Query string: Consider the molecule shown here: C=C1C(=O)C23[C@H](O)C1CC[C@H]2[C@]12COC3(O)[C@@H](O)[C@@H]1C(C)(C)CC[C@@H]2O What is its recorded TGI?
Result string: 16.4

---

System: EKVX NSCLC
Assay: NCI tumour cell line growth inhibition, 48 h; in the data active = GI50 below about 0.43 µM; inactive = the rest
Return exactly one item of y = active, n = inactive

CC(=O)/C=C/c1ccc(Nc2c3ccccc3nc3occ(Cl)c23)cc1 | n

Query string: For Cc1cc(N/N=C/c2nc(-c3ccc(Cl)cc3)oc2C)c2cc(Br)ccc2n1 , what call appears in the results of this test?
Result string: n

Query string: Identify the outcome logged in this assay for the compound shown: C=C(CN1CCc2c([nH]c3ccccc23)C1)c1ccc(C(=O)Nc2ccccc2N)cc1
Result string: n

Query string: I would be grateful if you could indicate the recorded call for COc1cc(F)ccc1-c1cc(Nc2cc(CS(C)(=N)=O)ccn2)ncc1F (configuration not stated) .
Result string: y

Query string: Check the results log: what was the call for c1ccc(-c2nc3n(c2-c2ccc4c(c2)OCO4)CCC3)nc1 ?
Result string: n

Query string: Could you check what this test reported for O=C1c2cccnc2-c2nc(-c3cccnc3)cc3c2c1nc1ccccc13 ?
Result string: n

Query string: State the result this test recorded for CN(C)CCCOc1cccc(NC2=C(Cl)C(=O)C(Nc3cccc(OCCCN(C)C)c3)=C(Cl)C2=O)c1 .
Result string: n

Query string: Assay result, entry CC(C)(C)NCC(O)COc1c(Br)c(Br)c(Br)c2c1OC(C)(C)C2 (configuration not stated) — outcome?
Result string: n

Query string: Write down the call the test reported for this compound. Item: COc1cc(C2=NN(C(C)=O)C(c3cc(OC)c(OC)c(OC)c3)C2)ccc1O (configuration not stated)
Result string: n
